Just for reference, patent US20120093809A1 is where these values come from.

- System: NCI-H460 non-small cell lung carcinoma cells
- assay.info: Antiproliferative activity of cisplatin with and without acetyl L-carnitine, MTT assay
- Format: cell-based
- condition.info: IC50±SD of cisplatin; acetyl L-carnitine 10 mM where combined; 72H of exposure; 0.1% FBS
parameter: IC50 (nM)
Give the number; nM is assumed, so skip it.

## Input Which IC50 is reported for this molecule? N.N.[Cl][Pt][Cl] [Cisplatin]
## Output 400

====

- System: NCI-H1650 non-small cell lung carcinoma cells
- assay.info: Antiproliferative activity of cisplatin with and without acetyl L-carnitine, MTT assay
- Assay type: cell-based
- condition.info: IC50±SD of cisplatin; acetyl L-carnitine 10 mM where combined; 6 days of exposure; 0.1% FBS
parameter: pIC50
Please keep in mind that pIC50 is minus log10 of the molar concentration; only the number is needed.

## Input State its pIC50 on NCI-H1650 non-small cell lung carcinoma cells: N.N.[Cl][Pt][Cl] [Cisplatin]
## Output 5.82
